- SYSTEM TESTED: APOL1 (Homo sapiens)
- Sequence (O14791 whole entry S342G/I384M, form open): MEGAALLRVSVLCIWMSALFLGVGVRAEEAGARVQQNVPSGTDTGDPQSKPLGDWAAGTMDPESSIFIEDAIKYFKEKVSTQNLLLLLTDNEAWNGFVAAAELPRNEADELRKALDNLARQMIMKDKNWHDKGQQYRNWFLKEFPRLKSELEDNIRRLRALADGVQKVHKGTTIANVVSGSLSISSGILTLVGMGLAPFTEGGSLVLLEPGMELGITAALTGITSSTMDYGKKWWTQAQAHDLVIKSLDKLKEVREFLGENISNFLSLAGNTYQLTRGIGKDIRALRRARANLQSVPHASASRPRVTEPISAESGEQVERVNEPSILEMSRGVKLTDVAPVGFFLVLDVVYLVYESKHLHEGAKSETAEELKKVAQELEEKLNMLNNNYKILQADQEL
- TEST NAME: MultiTox-Fluor Multiplex Cytotoxicity Assay in tet-inducible APOL1 T-REx-HEK293 cells (cell rescue, ratio of dead to live cells)
- CONDITION INFO: tet-inducible transgenic APOL1 T-REx-HEK293 cell lines, 50 ng/mL tet, 24 hours; read-out: IP50 (i.e., IC50 for cell proliferation)
- Procedure: The MultiTox-Fluor Multiplex Cytotoxicity Assay is a single-reagent-addition, homogeneous, fluorescence assay that measures the number of live and dead cells simultaneously in culture wells. […] The MultiTox reagent was added to each well and placed back in the incubator for an additional 30 minutes. The plate was read on the EnVision plate reader. A ratio of dead to live cells was used to normalize, and data was imported, analyzed, and fit using Genedata Screener (Basel, Switzerland) software. […]
pIC50: −log10 of the molar value.
OBSERVATION TYPE: pIC50

// solved cases for pIC50 follow
Qu. Fill in: pIC50 of Cc1nnc(Cn2cc(CN3CC[C@]4(C[C@@H]3C)OCCc3c4sc(C(F)(F)F)c3CO)cn2)o1 [Compound 923] is ___
Ans. > 7.00

Qu. Item under review: C[C@H]1C[C@@]2(CCN1Cc1cnn(CCO)c1)OCCc1cc(Cl)sc12 [Compound 632] . Reported pIC50?
Ans. > 7.00

Qu. If you can, please state the reported pIC50 value of C[C@H]1C[C@@]2(CCN1CC1CCN(S(C)(=O)=O)CC1)OC[C@H](O)c1cc(Cl)sc12 [Compound 796] .
Ans. 6.30 to 7.00

Now consider the entry below.
Qu. Data request, read-out pIC50, for CCc1cc2c(s1)CCO[C@@]21CCN(CC2CN(C(=O)C(=O)c3cnc[nH]3)C2)[C@@H](C)C1 [Compound 482]
Ans. > 7.00
